Attribution: ChEMBL document CHEMBL1833943

# Test system: Mycobacterium tuberculosis
# Experiment summary: Antituberculosis activity against Mycobacterium tuberculosis H37Rv under aerobic conditions by microplate alamar blue assay
# Type: functional
Endpoint name: log10 of MIC (log10 of the value in µM)
Lab note - MIC converted to log10 from values in µM.

Request: Data request, read-out log10 of MIC, for O=[N+]([O-])c1cn2c(n1)OC[C@@H](Oc1ccnc(-c3ccc(C(F)(F)F)nc3)c1)C2
Response: 1.15

Request: Then what about the compound O=[N+]([O-])c1cn2c(n1)OC[C@@H](OCCCc1ccc(-c3ccc(C(F)(F)F)cc3)cc1)C2 ?
Response: -1.37

Request: Then what about the compound O=[N+]([O-])c1cn2c(n1)OC[C@@H](Oc1ccc(-c3ccc(F)cc3)cn1)C2 ?
Response: -0.43

Request: Then what about the compound CC(O[C@@H]1COc2nc([N+](=O)[O-])cn2C1)c1ccc(OC(F)(F)F)cc1 (mixture of isomers) ?
Response: -0.22

Request: Then what about the compound O=[N+]([O-])c1cn2c(n1)OC[C@@H](Oc1cc(-c3ccc(OC(F)(F)F)cc3)ccn1)C2 ?
Response: 0.71

Request: Then what about the compound O=[N+]([O-])c1cn2c(n1)OC[C@@H](Oc1cccc(-c3ccc(F)cc3)n1)C2 ?
Response: 0.51

Request: Then what about the compound O=[N+]([O-])c1cn2c(n1)OC[C@@H](OCCOc1ncc(-c3ccc(C(F)(F)F)nc3)cn1)C2 ?
Response: -0.20

Request: Then what about the compound O=[N+]([O-])c1cn2c(n1)OC[C@@H](OCCCC#Cc1ccc(-c3ccc(C(F)(F)F)cc3)cc1)C2 ?
Response: -1.07

Request: Then what about the compound O=[N+]([O-])c1cn2c(n1)OC[C@@H](Oc1ccnc(-c3ccc(C(F)(F)F)cc3)c1)C2 ?
Response: -0.19

Request: Then what about the compound O=[N+]([O-])c1cn2c(n1)OC[C@@H](OCCCc1ccc(OC(F)(F)F)cc1)C2 ?
Response: -0.66

Request: Then what about the compound O=[N+]([O-])c1cn2c(n1)OC[C@@H](Oc1ccc(-c3ccc(C(F)(F)F)nc3)cc1)C2 ?
Response: -0.29

Request: Then what about the compound O=[N+]([O-])c1cn2c(n1)OC[C@@H](Oc1cccc(-c3ccc(C(F)(F)F)cc3)n1)C2 ?
Response: -0.26

Request: Then what about the compound O=[N+]([O-])c1cn2c(n1)OC[C@@H](OCC#Cc1ccc(-c3ccc(OC(F)F)cc3)nc1)C2 ?
Response: -1.10

Request: Then what about the compound O=[N+]([O-])c1cn2c(n1)OC[C@@H](OCC#Cc1ccc(-c3ccc(C(F)(F)F)nc3)cc1)C2 ?
Response: -0.82

Request: Then what about the compound O=[N+]([O-])c1cn2c(n1)OC[C@@H](OCC#Cc1ccc(-c3ccc(OC(F)F)cc3)cn1)C2 ?
Response: -1.60

Request: Then what about the compound O=[N+]([O-])c1cn2c(n1)OC[C@@H](OCCOc1ncc(-c3ccc(F)cc3)cn1)C2 ?
Response: -0.89

Request: Then what about the compound O=[N+]([O-])c1cn2c(n1)OC[C@@H](OCCOc1ccc(OCc3ccccc3)cc1)C2 ?
Response: -1.07

Request: Then what about the compound O=[N+]([O-])c1cn2c(n1)OC[C@@H](OCC#Cc1cccc(-c3ccc(OC(F)F)cc3)c1)C2 ?
Response: -1.05

Request: Then what about the compound O=[N+]([O-])c1cn2c(n1)OC[C@@H](OCCOc1ccc(C(F)(F)F)cn1)C2 ?
Response: -0.42

Request: Then what about the compound O=[N+]([O-])c1cn2c(n1)OC[C@@H](OCc1ccc(C(F)(F)F)nc1)C2 ?
Response: 0.48

Request: Then what about the compound O=[N+]([O-])c1cn2c(n1)OC[C@@H](Oc1cccc(-c3ccc(C(F)(F)F)nc3)n1)C2 ?
Response: 0.76

Request: Then what about the compound O=[N+]([O-])c1cn2c(n1)OC[C@@H](Oc1cc(-c3ccc(C(F)(F)F)nc3)ncn1)C2 ?
Response: 0.48

Request: Then what about the compound O=[N+]([O-])c1cn2c(n1)OC[C@@H](OCc1ccc(OCc3ccccc3)cc1)C2 ?
Response: -1.60

Request: Then what about the compound O=[N+]([O-])c1cn2c(n1)OC[C@@H](OCCOc1ccc(-c3ccc(F)cc3)cn1)C2 ?
Response: -1.70

Request: Then what about the compound O=[N+]([O-])c1cn2c(n1)OC[C@@H](OCCCC#Cc1ccc(-c3ccc(F)cc3)cc1)C2 ?
Response: -1.15

Request: Then what about the compound O=[N+]([O-])c1cn2c(n1)OC[C@@H](OCCCc1ccc(C(F)(F)F)nc1)C2 ?
Response: -0.29

Request: Then what about the compound O=[N+]([O-])c1cn2c(n1)OC[C@@H](OC/C=C/c1ccc(-c3ccc(C(F)(F)F)nc3)cc1)C2 ?
Response: -1.70

Request: Then what about the compound O=[N+]([O-])c1cn2c(n1)OC[C@@H](Oc1ccc(C(F)(F)F)cn1)C2 ?
Response: 0.46

Request: Then what about the compound O=[N+]([O-])c1cn2c(n1)OC[C@@H](Oc1ncc(-c3ccc(F)cc3)cn1)C2 ?
Response: 0.20

Request: Then what about the compound O=[N+]([O-])c1cn2c(n1)OC[C@@H](OC/C=C/c1ccc(C(F)(F)F)nc1)C2 ?
Response: -0.82

Request: Then what about the compound O=[N+]([O-])c1cn2c(n1)OC[C@@H](OCC#Cc1ccc(-c3ccc(OC(F)(F)F)cc3)nc1)C2 ?
Response: -1.05

Request: Then what about the compound O=[N+]([O-])c1cn2c(n1)OC[C@@H](Oc1ncc(-c3ccc(C(F)(F)F)cc3)cn1)C2 ?
Response: -0.68

Request: Then what about the compound O=[N+]([O-])c1cn2c(n1)OC[C@@H](OCCCc1ccc(-c3ccc(C(F)(F)F)cn3)cc1)C2 ?
Response: -1.26
